Origin of measurements: the supplement of paper PMC7877785

Would you mind telling me the reported self-splicing fitness (ln) of each entry?
Assay: self-splicing fitness, log relative to wild type (ln ratio); higher = more splicing; Tetrahymena group I intron in knt gene, E. coli kanamycin selection, DiMSum; sequences stand for … in CUCUCU…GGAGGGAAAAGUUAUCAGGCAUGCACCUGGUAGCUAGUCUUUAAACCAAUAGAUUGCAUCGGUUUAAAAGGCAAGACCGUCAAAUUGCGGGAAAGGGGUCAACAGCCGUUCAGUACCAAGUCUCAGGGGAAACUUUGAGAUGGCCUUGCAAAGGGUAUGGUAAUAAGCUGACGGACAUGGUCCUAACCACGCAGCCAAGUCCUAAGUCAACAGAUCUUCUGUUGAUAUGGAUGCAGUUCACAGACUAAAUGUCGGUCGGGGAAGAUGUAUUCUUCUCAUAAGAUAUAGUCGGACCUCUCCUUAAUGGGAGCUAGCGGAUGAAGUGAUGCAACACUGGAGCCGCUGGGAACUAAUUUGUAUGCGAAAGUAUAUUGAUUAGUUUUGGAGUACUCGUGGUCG;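 further: selection with 25 µg/mL kanamycin versus none on LB agar overnight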
Details: 30 °C
The answer should be a number; do not append a unit.

[Q] Specify self-splicing fitness (ln) for AGUAAGCAAUAUUACGAGAU and stop.
[A] -3.09

[Q] Consider the sequence CUCGAGCAAUAUUACGUAUG and give its recorded self-splicing fitness (ln).
[A] -2.93

[Q] Look up self-splicing fitness (ln) of CCUAAGCAAUAUUACGCUUA and report it.
[A] -3.09

====

Experiment: self-splicing fitness, log relative to wild type (ln ratio); higher = more splicing; Tetrahymena group I intron in knt gene, E. coli kanamycin selection, DiMSum; sequences stand for … in CUCUCU…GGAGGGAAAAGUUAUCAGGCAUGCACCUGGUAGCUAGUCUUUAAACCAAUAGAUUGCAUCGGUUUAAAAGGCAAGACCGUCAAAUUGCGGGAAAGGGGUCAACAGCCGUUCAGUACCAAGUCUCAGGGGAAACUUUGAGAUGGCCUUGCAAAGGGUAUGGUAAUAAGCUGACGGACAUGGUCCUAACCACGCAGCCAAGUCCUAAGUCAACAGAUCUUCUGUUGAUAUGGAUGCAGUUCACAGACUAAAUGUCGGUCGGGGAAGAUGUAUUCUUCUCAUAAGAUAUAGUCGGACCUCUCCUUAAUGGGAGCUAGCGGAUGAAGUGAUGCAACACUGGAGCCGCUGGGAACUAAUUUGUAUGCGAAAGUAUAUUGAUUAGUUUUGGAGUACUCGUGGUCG
Settings: 30 °C
endpointName: self-splicing fitness (ln)

[Q] Give me measured self-splicing fitness (ln), please, for this sequence: ACCUAGCAAUAUUACGCCCA
[A] -1.16

[Q] Give the value of self-splicing fitness (ln) reported for the following: UUUCAGCAAUAUUACGACAG
[A] -0.245

[Q] Quickly give me recorded self-splicing fitness (ln) for CUUCAGCAAUAUUACGACGC
[A] -0.697

[Q] Supply self-splicing fitness (ln) value. Item: CCUCAGCAAUAUUACGGGGG
[A] -4.13

[Q] Using known records, supply self-splicing fitness (ln) for GCAUAGCAAUAUUACGGUGU
[A] -4.14

[Q] Retrieve self-splicing fitness (ln) measured for ACUGAGCAAUAUUACGGAGC and print it.
[A] -2.54

[Q] # return recorded self-splicing fitness (ln) for input AAAAAGCAAUAUUACGGCGG
[A] -1.18

[Q] Kindly indicate its recorded self-splicing fitness (ln). Item: AUACAGCAAUAUUACGUCUU
[A] -0.218

[Q] Please look at this sequence and report its self-splicing fitness (ln): GUCCAGCAAUAUUACGCCCC
[A] -1.09

[Q] Supply recorded self-splicing fitness (ln) for AUCGAGCAAUAUUACGCCUG here.
[A] -3.45

[Q] Given AGCAAGCAAUAUUACGAAAA , respond with its self-splicing fitness (ln).
[A] -3.39
